Catalogue of IC50 values
- Test system: PC12 cells
- protocolDescription: PC12 cell viability, CellTitreGlo Assay, 72 hrs
- Type: cell-based
- conditionsUsed: Rattus norvegicus, PC-12
Reply numerically in µM, unit not repeated.

Please review the following examples before continuing.
Noted IC50 for Cn1nc(C(F)(F)F)cc1-c1cc(Cl)c(N)c(-c2ccc(Cl)c(C(F)(F)F)c2)c1O , tested on PC12 cells: 30.5

Summary: Cn1nc(C(F)(F)F)c(Cl)c1-c1ccc(COc2ccc(Cl)cc2Cl)c(-c2ccc(Cl)c(C(F)(F)F)c2)c1O , PC12 cells, IC50 = 8.27

Observed IC50 on PC12 cells, entry Cn1nc(C(F)(F)F)cc1-c1cc(Cl)c(CNc2ccc(Cl)cc2)c(-c2ccc(Cl)c(C(F)(F)F)c2)c1O , equals 2.31

Moving on to the next compound.
Here Cc1ccc(C2(Oc3ccc(-c4cc(C(F)(F)F)nn4C)c(O)c3-c3ccc(Cl)c(C(F)(F)F)c3)CC2)cc1 was tested on PC12 cells, and its IC50 came to 597

====

Each item that follows carries a reported Cmax.
- protocolDescription: Plasma pharmacokinetics after 1 mg/kg PO in female mice
- conditionsUsed: mouse

The reported value for Cn1nc(C(F)(F)F)cc1-c1ccc(COc2ccc(Cl)cc2)c(-c2ccc(Cl)c(C(F)(F)F)c2)c1O in terms of Cmax is 244 ng/mL

The value of Cmax measured for the compound Cn1nc(C(F)(F)F)cc1-c1cc(Cl)c(COc2ccc(Cl)cc2)c(-c2ccc(Cl)c(C(F)(F)F)c2)c1O turned out to be 274 ng/mL

Sure, the documented Cmax for Cn1nc(C(F)(F)F)cc1-c1c(F)cc(OCc2ccc(Cl)cc2)c(-c2ccc(Cl)c(C(F)(F)F)c2)c1O is 472 ng/mL

---
Measured Cmax, Cn1nc(C(F)(F)F)c(Cl)c1-c1ccc(COc2ccc(Cl)cc2)c(-c2ccc(Cl)c(C(F)(F)F)c2)c1O : 841 ng/mL

Data point: Cn1nc(C(F)(F)F)c(Cl)c1-c1cc(Cl)c(COc2ccc(Cl)cc2)c(-c2ccc(Cl)c(C(F)(F)F)c2)c1O ; Cmax = 202 ng/mL

====

- protocolDescription: Plasma pharmacokinetics after 1 mg/kg PO in female mice
- conditionsUsed: mouse
Listing: MRT inf of selected compounds
Number only, in h; omit the unit.

Cn1nc(C(F)(F)F)cc1-c1c(F)cc(OCc2ccc(Cl)cc2)c(-c2ccc(Cl)c(C(F)(F)F)c2)c1O has a reported MRT inf of 7.57

Next compound, MRT inf to be filled in.
Form: compound = Cn1nc(C(F)(F)F)c(Cl)c1-c1cc(Cl)c(COc2ccc(Cl)cc2)c(-c2ccc(Cl)c(C(F)(F)F)c2)c1O ; MRT inf = 15.8

====

- Test system: ATF4
- protocolDescription: ATF4 protein level in PC3 cells by western blot, 24 hr
- Type: cell-based
- conditionsUsed: Homo sapiens, PC-3, PC3, 24 h, Actin control, read-out: Relative ATF4 protein at 10 μM (fold change, PC3 24 h)
# fold induction at 10 µM listing for each entry below
// print number alone

Data point: Cc1ccc(C2(Oc3ccc(-c4cc(C(F)(F)F)nn4C)c(O)c3-c3ccc(Cl)c(C(F)(F)F)c3)CC2)cc1 [NUCC-0226495] ; fold induction at 10 µM = 11.5
